Source listed as ChEMBL document CHEMBL3272232.

tested on: Escherichia coli; experiment: Inhibition of Escherichia coli dihydroneopterin aldolase assessed as [14C]glycolaldehyde formation using [14C]neopterin substrate by scintillation counting
Below is a list of entries, each paired with its recorded ID50 value.
VALUE_TYPE: ID50

In [3]: df
Out[3]:
                                    compound  reported_result
 0                   OCC1=Nc2c(O)nc(S)nc2NC1       > 50 µg/mL
 1               NC(=O)C1=Nc2c(O)nc(N)nc2NC1          5 µg/mL
 2                    CC1=Nc2c(O)nc(N)nc2NC1       > 50 µg/mL
 3  CC(C)C1=Nc2c(N)nc(N)nc2NC1C(C)C (stereo not given)       > 50 µg/mL
 4             Nc1nc(O)c2c(n1)NCC(C(=O)O)=N2       > 50 µg/mL
 5             Nc1nc2c(c(=O)[nH]1)N=C(CO)CN2         30 µg/mL
 6  Nc1nc(O)c2c(n1)NC(CO)C=N2 (stereo not given)       > 50 µg/mL
 7             Nc1nc(O)c2c(n1)NCC(/C=N/O)=N2       > 50 µg/mL
 8                 Nc1nc(N)c2c(n1)NCC(CO)=N2       > 50 µg/mL
 9             CCCCCCCCC1=Nc2c(O)nc(N)nc2NC1       > 50 µg/mL
10        Nc1nc(O)c2c(n1)NCC(CCCc1ccccc1)=N2       > 50 µg/mL
11               CC1(C)Nc2nc(N)nc(O)c2N=C1CO          1 µg/mL
12            CCOC(OCC)C1=Nc2c(O)nc(N)nc2NC1       > 50 µg/mL
13                     Nc1nc(O)c2c(n1)NCC=N2       > 50 µg/mL
14  Nc1nc(O)c2c(n1)NC(O)C(C(=O)O)=N2 (stereo not given)       > 50 µg/mL
